- targetOrTestSystem: HIV-1 NefNL4-3 (Human immunodeficiency virus type 1 group M subtype B, UniProt P03406, A33V/T15A/T51N/V11I)
- protocolText: Surface plasmon resonance binding to recombinant full-length Nef (NL4-3)
- testParameters: Table 4; 2-step induced fit; T = 1/koff2
Listing of entries alongside the reported T, minutes (residence time).

{"columns": ["molecule", "T, minutes (residence time)"],
 "data": [
  ["Oc1c(CC2CCOCC2)c(-c2ccc(F)cc2)nn1-c1nc2ccccc2[nH]1 [Compound I-151]", "4.68E + 00 minutes"],
  ["CC(C)COC(=O)N1CCC(c2nn(-c3nc4ccccc4[nH]3)c(O)c2CCc2ccc(F)cc2)CC1 [Compound I-721]", "4.69E + 02 minutes"],
  ["COC(=O)c1ccc(CCc2c(-c3ccccc3)nn(-c3nc4cc(Cl)ccc4[nH]3)c2O)cc1 [Compound I-171]", "7.82E + 02 minutes"],
  ["O=C(C1CCOC1)N1CCC(c2nn(-c3nc4ccccc4[nH]3)c(O)c2CCc2ccc(F)cc2)CC1 (stereo not drawn) [Compound I-736]", "1.97E + 03 minutes"],
  ["COC(=O)N1CCC(c2nn(-c3nc4ccccc4[nH]3)c(O)c2CCc2ccc(F)cc2)CC1 [Compound I-740]", "1.26E + 01 minutes"],
  ["Oc1c(CC2CCOCC2)c(-c2ccc(F)cc2)nn1-c1nc2cc(F)ccc2[nH]1 [Compound I-173]", "7.12E + 04 minutes"],
  ["Oc1c(CCN2CCOCC2)c(-c2ccc(C(F)(F)F)cc2)nn1-c1nc2ccccc2[nH]1 [Compound I-131]", "5.16E + 00 minutes"],
  ["Oc1c(CCc2ccc(F)cc2)c(C2CCC2)nn1-c1nc2ccccc2[nH]1 [Compound I-129]", "5.19E + 05 minutes"],
  ["Oc1c(CC2CCOCC2)c(CCC2CCOCC2)nn1-c1nc2ccccc2[nH]1 [Compound I-178]", "7.72E + 00 minutes"],
  ["Oc1c(CCc2ccc(F)cc2)c(C2CCNCC2)nn1-c1nc2ccc(Cl)cc2[nH]1 [Compound I-503]", "3.18E + 04 minutes"],
  ["CC(C)(C)OC(=O)N1CCC(CCc2c(-c3ccc(S(C)(=O)=O)cc3)nn(-c3nc4ccccc4[nH]3)c2O)CC1 [Compound I-201]", "2.62E + 01 minutes"],
  ["Oc1c(CCc2ccc(F)cc2)c(-c2cccnc2)nn1-c1nc2ccccc2[nH]1 [Compound I-121]", "2.58E + 01 minutes"],
  ["Oc1c(CCc2ccc(F)cc2)c(CNCc2ccncc2)nn1-c1nc2ccccc2[nH]1 [Compound I-810]", "5.97E + 00 minutes"],
  ["CC(C)(C)OC(=O)N1CCC[C@H]1c1nn(-c2nc3ccccc3[nH]2)c(O)c1CCc1ccc(F)cc1 (stereo in doubt) [Compound I-205]", "9.98E + 01 minutes"],
  ["CC(C)(C)OC(=O)N1CCC(c2nn(-c3nc4ccccc4[nH]3)c(O)c2CCc2ccc(F)cc2)CC1 [Compound I-202]", "6.36E + 06 minutes"]
]}

###

// reported Kd for each item listed
- targetOrTestSystem: HIV-1 NefNL4-3 (Human immunodeficiency virus type 1 group M subtype B, UniProt P03406, A33V/T15A/T51N/V11I)
- protocolText: Surface plasmon resonance binding to recombinant full-length Nef (NL4-3)
- testParameters: Table 1; 2-step induced-fit model; read-out: Nef NL4-3 Binding, SPR 2-state fitting KD
propertyName: Kd (µM)

{"columns": ["compound", "value"],
 "data": [
  ["O=S(=O)(C1CCCCC1)N1CCC(c2nn(-c3nc4ccccc4[nH]3)c(O)c2CCc2ccc(F)cc2)CC1", 257],
  ["Oc1c(CCc2ccc(F)cc2)c(C2CCCNC2)nn1-c1nc2ccccc2[nH]1 (stereo not drawn)", 4.51],
  ["CC(C)(C)OC(=O)N1CCCC(c2nn(-c3nc4ccccc4[nH]3)c(O)c2CCc2ccc(F)cc2)C1 (stereo not drawn)", 0.296]
]}
